testTarget: OsWOX13 (Oryza sativa, UniProt Q5QMM3 1-267)
Sequence: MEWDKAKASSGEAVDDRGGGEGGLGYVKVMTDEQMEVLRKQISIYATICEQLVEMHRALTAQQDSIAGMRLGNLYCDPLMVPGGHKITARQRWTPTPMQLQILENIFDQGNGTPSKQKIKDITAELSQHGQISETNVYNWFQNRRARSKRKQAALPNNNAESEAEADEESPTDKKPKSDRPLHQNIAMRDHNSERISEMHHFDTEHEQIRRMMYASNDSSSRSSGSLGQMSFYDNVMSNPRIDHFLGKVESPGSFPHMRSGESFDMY
procedureText: protein-binding microarray (RPBM); PBS, 2% BSA, 51.3 ng/ul salmon testes DNA, 50 uM zinc acetate, 200 nM TF, 25 C, 1 h; high values mean tight binding
appliedConditions: protein: recombinant; tags: N-terminal polyhistidine and DsRed monomer fusion (pET32a); label: CyDye5-dUTP incorporated in the synthesized complementary strand; 3' TTTTT single-stranded linker to array surface; dsDNA, one strand shown
In all, about 35,000 sequences were measured (“fluorescence intensity (a.u.)”: median about 10,000, highest 2% from about 52,000 on). This is one part of a sample in which the highest values are shown more often than they occur.
In this section we review reported binding signal values for a set of sequences.

Exam item: Give recorded binding signal. ATAATTATTATGTCTGGTAGGATAGGATTTAGATGGTAAGCGGAGTCACCTAGTGCAG
Marked response: 5670 fluorescence intensity (a.u.)

Exam item: Give recorded binding signal. ATTATACTATGATTGTACTGTAATTACATCTGTCAAATTTCGGAGTCACCTAGTGCAG
Marked response: 24500 fluorescence intensity (a.u.)

Exam item: Give recorded binding signal. CACCAATCACATTAATATGATAATTCATTCACCTACCTCGCGGAGTCACCTAGTGCAG
Marked response: 39700 fluorescence intensity (a.u.)

Exam item: Give recorded binding signal. TACCTCGCGACTAATTGGGCCTCCACTAACACCTAGATTCCGGAGTCACCTAGTGCAG
Marked response: 4340 fluorescence intensity (a.u.)

Exam item: Give recorded binding signal. GTCATGTGATTGATGATTCAGCATCCCTTGAGGCTCAGTGCGGAGTCACCTAGTGCAG
Marked response: 53600 fluorescence intensity (a.u.)

###

In this section we review reported binding signal values for a set of sequences.
testTarget: OsWOX13 (Oryza sativa, UniProt Q5QMM3 1-267)
Sequence: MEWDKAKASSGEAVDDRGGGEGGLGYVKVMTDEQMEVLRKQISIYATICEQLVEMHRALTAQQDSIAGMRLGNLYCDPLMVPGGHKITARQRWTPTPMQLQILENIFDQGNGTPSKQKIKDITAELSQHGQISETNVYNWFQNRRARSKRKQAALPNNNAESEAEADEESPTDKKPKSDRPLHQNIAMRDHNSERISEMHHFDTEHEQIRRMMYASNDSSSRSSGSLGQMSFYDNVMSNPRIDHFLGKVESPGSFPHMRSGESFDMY
procedureText: protein-binding microarray (RPBM); PBS, 2% BSA, 51.3 ng/ul salmon testes DNA, 50 uM zinc acetate, 200 nM TF, 25 C, 1 h; high values mean tight binding
appliedConditions: protein: recombinant; tags: N-terminal polyhistidine and DsRed monomer fusion (pET32a); label: CyDye5-dUTP incorporated in the synthesized complementary strand; 3' TTTTT single-stranded linker to array surface; dsDNA, one strand shown
In all, about 35,000 sequences were measured (“fluorescence intensity (a.u.)”: median about 10,000, highest 2% from about 52,000 on). Only a selection was taken, and the highest values are over-represented in it overall.

biosequence	binding signal
TCCTCAATTAATTGCTGATCCTAATGCAGAGTTTCAGGTGCGGAGTCACCTAGTGCAG	35500 fluorescence intensity (a.u.)
TAATAATAATAATAATAATAATAATAATAACACATCGCACCGGAGTCACCTAGTGCAG	4120 fluorescence intensity (a.u.)
TTCAAATTAAGCTGCTTTAGATTATAATCTGAAGCTGGGCCGGAGTCACCTAGTGCAG	17800 fluorescence intensity (a.u.)
TACTAATTACTACTAACCGTTAAAAGTAGCCGCCGGTTAACGGAGTCACCTAGTGCAG	17800 fluorescence intensity (a.u.)
TCAGCTAATCAGCTAACTGGTCCTTTTCCTACTTCCCTTGCGGAGTCACCTAGTGCAG	8010 fluorescence intensity (a.u.)
ATTCGTAACCACTTAATTACCCATTTATCCCCTTCTGATTCGGAGTCACCTAGTGCAG	10600 fluorescence intensity (a.u.)
TTAGCGTCTAATTATAGGATTATTTATGATAATATTCGTCCGGAGTCACCTAGTGCAG	5680 fluorescence intensity (a.u.)
TTATGATTTAATTAGCGATTAATTATCCTAATTAGTGATTCGGAGTCACCTAGTGCAG	62200 fluorescence intensity (a.u.)

Exam item: Give recorded binding signal. TGTTGTTAGATGATAAAACATGATTAATATTTTATGCGTGCGGAGTCACCTAGTGCAG
Marked response: 3610 fluorescence intensity (a.u.)

Exam item: Give recorded binding signal. TCGAATTTGATCAGTAGCTTAATTATACTTTAGTACTACCCGGAGTCACCTAGTGCAG
Marked response: 10600 fluorescence intensity (a.u.)

Exam item: Give recorded binding signal. GCCTAATTAATCCATGATTAGCCTATGTGATGCTATAGTACGGAGTCACCTAGTGCAG
Marked response: 52700 fluorescence intensity (a.u.)

Exam item: Give recorded binding signal. TCCAACGGTGCCGCTTAATTAGTGATTAATTATCCTAATTCGGAGTCACCTAGTGCAG
Marked response: 16400 fluorescence intensity (a.u.)
